- System: A549
- Assay overview: Antiproliferative activity against human A549 cells incubated for 72 hrs by MTT assay
- Assay type: functional, cell-based
- Condition label: A549, 72 h
Kindly state IC50 for each of the entries shown.

# Molecule, Test target, IC50
measured = [
    ("CCCc1cc(C)[nH]c(=O)c1CNC(=O)c1cc(-c2ccc(N3CCN(C(=O)C[C@@H]4N=C(c5ccc(Cl)cc5)c5c(sc(C)c5C)-n5c(C)nnc54)CC3)nc2)cc2c1cnn2C(C)C", "A549", "> 20 µM"),
]

For every listed record, write down its IC50.
1. CCn1ncc2c(C(=O)NCc3c(C)cc(C)[nH]c3=O)cc(-c3ccc(N4CCN(C(=O)C[C@@H]5N=C(c6ccc(Cl)cc6)c6c(sc(C)c6C)-n6c(C)nnc65)CC4)nc3)cc21
2. Cc1cc(C)c(CNC(=O)c2cc(N3CCN(C(=O)C[C@@H]4N=C(c5ccc(Cl)cc5)c5c(sc(C)c5C)-n5c(C)nnc54)CC3)cc3c2cnn3C(C)C)c(=O)[nH]1
3. Cc1cc(C)c(CNC(=O)c2cc(NCCCCCNC(=O)C[C@@H]3N=C(c4ccc(Cl)cc4)c4c(sc(C)c4C)-n4c(C)nnc43)cc3c2cnn3C(C)C)c(=O)[nH]1
4. CCC(C)n1ncc2c(C(=O)NCc3c(C)cc(C)[nH]c3=O)cc(-c3ccc(N4CCN(C(=O)C[C@@H]5N=C(c6ccc(Cl)cc6)c6c(sc(C)c6C)-n6c(C)nnc65)CC4)nc3)cc21 (stereo partly specified)
5. Cc1cc(C)c(CNC(=O)c2cc(-c3ccc(CNC(=O)C[C@@H]4N=C(c5ccc(Cl)cc5)c5c(sc(C)c5C)-n5c(C)nnc54)cc3)cc3c2cnn3C(C)C)c(=O)[nH]1

Reply:
1: > 20 µM; 2: > 20 µM; 3: 4.63 µM; 4: > 20 µM; 5: > 20 µM

All figures here come from ChEMBL document CHEMBL5325470.
